# solubility at 24 h listing for each entry below
- procedure_text: Solubility of compound in PBS incubated for 24 hrs by HPLC analysis
- Assay type: physicochemical
readout_name: solubility at 24 h (µM)

{"molecule": "C[C@@H](Cn1ccc(-c2ccc(C#N)c(Cl)c2)n1)Nc1cccc2ncccc12", "readout_name": "solubility at 24 h", "result_units": "µM", "cmp": "<", "endpoint_result": 2.52}
{"molecule": "C[C@@H](Cn1ccc(-c2ccc(C#N)c(Cl)c2)n1)Nc1ncnc2nc[nH]c12", "readout_name": "solubility at 24 h", "result_units": "µM", "cmp": "=", "endpoint_result": 24.5}
{"molecule": "CC(O)c1cc(C(=O)N[C@@H](C)Cn2ccc(-c3ccc(C#N)c(Cl)c3)n2)[nH]n1 (stereo partly drawn) [DAROLUTAMIDE]", "readout_name": "solubility at 24 h", "result_units": "µM", "cmp": "=", "endpoint_result": 223}

---

- System: PC-3
- procedure_text: Cytotoxicity against human PC3 assessed as reduction in cell viability incubated for 6 days by CCK-8 assay
- Type: cell-based
- study_conditions: PC-3, 144 h
# IC50 listing for each entry below

{"line_notation": "C[C@@H](Cn1ccc(-c2ccc(C#N)c(Cl)c2)n1)Nc1ncnc2nc[nH]c12", "measured_target": "PC-3", "cmp": "=", "IC50, µM": 14.1}
{"line_notation": "C[C@H](Cn1ccc(-c2ccc(C#N)c(Cl)c2)n1)Nc1ncnc2nc[nH]c12", "measured_target": "PC-3", "cmp": "=", "IC50, µM": 1.56}
{"line_notation": "C[C@@H](Cn1ccc(-c2ccc(C#N)c(Cl)c2)n1)NC(=O)c1ccccc1", "measured_target": "PC-3", "cmp": ">", "IC50, µM": 30}
{"line_notation": "CC(=O)c1cc(C(=O)N[C@@H](C)Cn2ccc(-c3ccc(C#N)c(Cl)c3)n2)n[nH]1", "measured_target": "PC-3", "cmp": ">", "IC50, µM": 30}
{"line_notation": "C[C@@H](Cn1ccc(-c2ccc(C#N)c(Cl)c2)n1)Nc1cccnc1", "measured_target": "PC-3", "cmp": ">", "IC50, µM": 30}

---

- Tested on: CWR22R
- procedure_text: Antiproliferative activity against human 22Rv1 expressing AR assessed as reduction in cell viability incubated for 6 days by CCK-8 assay
- Format: functional, cell-based
- study_conditions: 22Rv1, 144 h
Lab note: compare IC50 with 10 µM, writing satisfied if less and not satisfied if equal or more.

{"line_notation": "C[C@@H](Cn1ccc(-c2ccc(C#N)c(Cl)c2)n1)Nc1cccc2ccccc12", "measured_target": "CWR22R", "category_label": "not satisfied"}
{"line_notation": "C[C@@H](Cn1ccc(-c2ccc(C#N)c(Cl)c2)n1)Nc1ccc2cnccc2c1", "measured_target": "CWR22R", "category_label": "satisfied"}
{"line_notation": "C[C@@H](Cn1ccc(-c2ccc(C#N)c(Cl)c2)n1)Nc1cccc2cnccc12", "measured_target": "CWR22R", "category_label": "not satisfied"}
{"line_notation": "C[C@@H](Cn1ccc(-c2ccc(C#N)c(Cl)c2)n1)Nc1cc2ccccc2cn1", "measured_target": "CWR22R", "category_label": "not satisfied"}
{"line_notation": "C[C@@H](Cn1ccc(-c2ccc(C#N)c(Cl)c2)n1)Nc1ncccn1", "measured_target": "CWR22R", "category_label": "not satisfied"}
{"line_notation": "C[C@@H](Cn1ccc(-c2ccc(C#N)c(Cl)c2)n1)Nc1nc(Cl)nc2nc[nH]c12", "measured_target": "CWR22R", "category_label": "satisfied"}
{"line_notation": "C[C@@H](Cn1ccc(-c2ccc(C#N)c(Cl)c2)n1)NC(=O)c1cc[nH]n1", "measured_target": "CWR22R", "category_label": "not satisfied"}
{"line_notation": "C[C@@H](Cn1ccc(-c2ccc(C#N)c(Cl)c2)n1)Nc1ncnc2ccccc12", "measured_target": "CWR22R", "category_label": "satisfied"}

Data origin, for the record: ChEMBL document CHEMBL4359895
